target: human GLP-1 receptor (human, UniProt P43220 24-463); assay: cell-based or functional assay
Numbered stars: 1 amine (or outer) side, 2 acyl side, 3 side chain; on linkers, the order of the positions; unused ones are H or OH. Square brackets hold non-standard residues; d marks the D form. Side chains are listed from the residue outwards. Ends that are not written are not given here. γGlu = O=C(O)[C@H](CCC(=O)[*:2])N[*:1]; x70 = not defined here; Aib = CC(C)(N)C(=O)O
With a cut-off of 5 pM, any EC50 hGLP-1R (cAMP) strictly below it is called criterion met; any EC50 hGLP-1R (cAMP) meeting it or above is called criterion not met.

binder: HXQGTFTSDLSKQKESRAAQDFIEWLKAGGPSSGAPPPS (dSer at 2; K(γE-x60) at 14; C-terminal NH2) [SEQ ID NO: 57]
cat: criterion not met
--
binder: HXHGTFTSDLSKQKESRRAQDFIEWLKAGGPSSGAPPPS (dSer at 2; K(γE-x53) at 14; C-terminal NH2) [SEQ ID NO: 73]
cat: criterion met
--
binder: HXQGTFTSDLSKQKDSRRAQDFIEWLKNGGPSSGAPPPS (dSer at 2; K(γE-x60) at 14; C-terminal NH2) [SEQ ID NO: 89]
cat: criterion not met
--
binder: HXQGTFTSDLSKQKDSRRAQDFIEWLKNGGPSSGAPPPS (dSer at 2; K(γE-x53) at 14; C-terminal N(diethyl)) [SEQ ID NO: 101]
cat: criterion not met
--
binder: HXQGTFTSDLSKQKESRRAQDFIEWLKXGGPSSGAPPPS (dSer at 2; K(γE-x53) at 14; Aib at 28; C-terminal NH2) [SEQ ID NO: 79]
cat: criterion not met
--
binder: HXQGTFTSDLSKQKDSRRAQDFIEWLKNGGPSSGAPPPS (dSer at 2; K(γE-x70) at 14; C-terminal NH2) [SEQ ID NO: 8]
cat: criterion not met
--
binder: HXQGTFTSDLSKQKDSRRAXDFIEWLKAGGPSSGAPPPS (dSer at 2; K(γE-x53) at 14; Aib at 20; C-terminal NH2) [SEQ ID NO: 67]
cat: criterion not met
--
binder: HXQGTFTSDLSKQKDSQAAQDFIEWLKRAGPSSGAPPPS (dSer at 2; K(γE-x53) at 14; C-terminal NH2) [SEQ ID NO: 124]
cat: criterion met
--
binder: H[Aib]QGTFTSDLSKQK([γGlu-x70])ESQAAQDFIEWLKAGGPSSGAPPPS-NH2 (reading uncertain) [SEQ ID NO: 41]
cat: criterion met
--
binder: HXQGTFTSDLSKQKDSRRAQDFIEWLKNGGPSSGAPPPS (dSer at 2; K(γE-x53) at 14; C-terminal NH2) [SEQ ID NO: 97]
cat: criterion met
--
binder: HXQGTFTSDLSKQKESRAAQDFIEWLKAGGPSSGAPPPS (dSer at 2; K(γE-x82) at 14; C-terminal NH2) [SEQ ID NO: 64]
cat: criterion met
